- Test system: P. falciparum 3D7 trophozoites
- TEST_PROTOCOL: Metabolomic fingerprint profiling LC-MS
- Format: cell-based, Plasmodium falciparum
- CONDITION_SUMMARY: S2 Table Metabolomics; metabolite Acetyllysine

- COMPOUND: "O=C(NCC(c1ccsc1)N1CCCCCC1)c1ccc(C(F)(F)F)cc1 (centres unmarked)"
  ASSAYED_TARGET: "P. falciparum 3D7 trophozoites"
  Acetyllysine: -0.3412
- COMPOUND: "CCOC(=O)C1=C(c2ccccc2)N=c2sc(=Cc3cc(C)n(-c4ccc(F)cc4)c3C)c(=O)n2C1c1cccc(OC)c1OC (centres unmarked)"
  ASSAYED_TARGET: "P. falciparum 3D7 trophozoites"
  Acetyllysine: -0.456
- COMPOUND: "Cc1ccc(-c2cc3nc4c(c(O)n3n2)CCCC4)cc1"
  ASSAYED_TARGET: "P. falciparum 3D7 trophozoites"
  Acetyllysine: 0.001543
- COMPOUND: "c1ccc(Cn2c(N=Nc3c(Nc4ccccc4)ccc4ccccc34)nc3ccccc32)cc1"
  ASSAYED_TARGET: "P. falciparum 3D7 trophozoites"
  Acetyllysine: 0.5853
- COMPOUND: "CCCCCCOC(=O)C1=C(C)NC(=O)NC1c1ccccc1F (centres unmarked)"
  ASSAYED_TARGET: "P. falciparum 3D7 trophozoites"
  Acetyllysine: -0.6021
- COMPOUND: "COc1ccc(-c2nc(NC(=O)CS(=O)(=O)c3ccc(F)cc3)sc2C)cc1"
  ASSAYED_TARGET: "P. falciparum 3D7 trophozoites"
  Acetyllysine: -0.1771
- COMPOUND: "CSC1=NC(=Nc2c(C)cccc2C)C2(CCC(C(C)(C)C)CC2)N1c1ccc(Cl)cc1 (centres unmarked)"
  ASSAYED_TARGET: "P. falciparum 3D7 trophozoites"
  Acetyllysine: 0.05532
- COMPOUND: "Cc1ccc(Nc2nc(NCCO)c3ccccc3n2)cc1C"
  ASSAYED_TARGET: "P. falciparum 3D7 trophozoites"
  Acetyllysine: -1.736
- COMPOUND: "Cc1cc(Nc2ccc(Cl)cc2)n2nc(C(F)(F)F)nc2n1"
  ASSAYED_TARGET: "P. falciparum 3D7 trophozoites"
  Acetyllysine: -0.5963
- COMPOUND: "CCC1(C)CC(CCNCc2ccccc2O)(c2ccc(C)cc2)CCO1 (centres unmarked)"
  ASSAYED_TARGET: "P. falciparum 3D7 trophozoites"
  Acetyllysine: -2.519
- COMPOUND: "CC(C)(C)c1ccc(O)c(CNC2CCCCC2)c1"
  ASSAYED_TARGET: "P. falciparum 3D7 trophozoites"
  Acetyllysine: -3.15

---

- Test system: P. falciparum 3D7 trophozoites
- TEST_PROTOCOL: Metabolomic fingerprint profiling LC-MS
- Assay type: cell-based, Plasmodium falciparum
- CONDITION_SUMMARY: metabolite pyruvate; S2 Table Metabolomics, change in metabolite level after compound treatment
Field: class. Source value: pyruvate. Ranges: label 0: < -0.3; label 1: ≥ -0.3 and < 0.008; label 2: ≥ 0.008

- MOLECULE: "CNCCCNc1ccnc2cc(Cl)ccc12"
  GROUP: "label 1"
- MOLECULE: "Cc1ccc(Nc2nc(NCCO)c3ccccc3n2)cc1C"
  GROUP: "label 2"
- MOLECULE: "COc1ccc2c(=O)cc(C(Cl)(Cl)Cl)oc2c1"
  GROUP: "label 0"
- MOLECULE: "Cc1ccc(N2C(=O)C3C(C2=O)C2(c4ccccc4)C(=O)C3(c3ccccc3)C(c3ccccc3)=C2c2ccccc2)cc1 (stereo not drawn)"
  GROUP: "label 0"
- MOLECULE: "CCCCCCOC(=O)C1=C(C)NC(=O)NC1c1ccccc1F (stereo not drawn)"
  GROUP: "label 2"
- MOLECULE: "Cc1ccc(-c2cc3c(SCC(=O)Nc4cc(C(F)(F)F)ccc4Cl)nccn3n2)cc1"
  GROUP: "label 1"
- MOLECULE: "Cc1cc(C=C2SC(=Nc3ccccc3)N(C3CCCC3)C2=O)c(C)n1-c1ccc(Cl)cc1"
  GROUP: "label 2"
- MOLECULE: "Cc1cc(NCCN2CCCCC2)c2ccc3ccccc3c2n1"
  GROUP: "label 1"
- MOLECULE: "COc1ccc(-c2nc(NC(=O)CS(=O)(=O)c3ccc(F)cc3)sc2C)cc1"
  GROUP: "label 0"

---

Below, each of the compounds is paired with its reported pIC50 value.
- Test system: P. falciparum 3D7
- TEST_PROTOCOL: [3H]-hypoxanthine growth inhibition, modified HCO3- or O2
- Format: cell-based
- CONDITION_SUMMARY: Plasmodium falciparum, 3D7; HCO3- reduced media; read-out: P. falciparum 3D7 IC50 HCO3- reduced
pIC50: −log10 of the molar value.

- COMPOUND: "CCN(CC)CCCC(C)Nc1ccnc2cc(Cl)ccc12 (centres unmarked) [Chloroquine, reference compound]"
  pIC50: 7.44
- COMPOUND: "COc1ccc(-c2nc(NC(=O)CS(=O)(=O)c3ccc(F)cc3)sc2C)cc1 [MMV665915]"
  pIC50: 6.33

---

Below, each of the molecules is paired with its reported uridine value.
- Tested on: P. falciparum 3D7 trophozoites
- TEST_PROTOCOL: Metabolomic fingerprint profiling LC-MS
- Format: cell-based, Plasmodium falciparum
- CONDITION_SUMMARY: metabolite uridine; S2 Table Metabolomics, change in metabolite level after compound treatment
MEASUREMENT_TYPE: uridine

- MOLECULE: "CC(C)(C)c1ccc(O)c(CNC2CCCCC2)c1"
  MEASUREMENT_TYPE: "uridine"
  REPORTED_RESULT: -0.6886
- MOLECULE: "CN(C)c1ccc(C(O)(c2ccc(N(C)C)cc2)c2ccc(N(C)C)cc2)cc1"
  MEASUREMENT_TYPE: "uridine"
  REPORTED_RESULT: -0.4322
- MOLECULE: "Cc1ccc(Nc2nc(-c3ccccn3)cs2)cc1"
  MEASUREMENT_TYPE: "uridine"
  REPORTED_RESULT: 0.4023
- MOLECULE: "Cc1cc(C=C2SC(=Nc3ccccc3)N(C3CCCC3)C2=O)c(C)n1-c1ccc(Cl)cc1"
  MEASUREMENT_TYPE: "uridine"
  REPORTED_RESULT: -0.08058
- MOLECULE: "Cc1cc(Nc2ccc(Cl)cc2)n2nc(C(F)(F)F)nc2n1"
  MEASUREMENT_TYPE: "uridine"
  REPORTED_RESULT: -0.902
- MOLECULE: "CCC1(C)CC(CCNCc2ccccc2O)(c2ccc(C)cc2)CCO1 (centres unmarked)"
  MEASUREMENT_TYPE: "uridine"
  REPORTED_RESULT: -0.4944
- MOLECULE: "Cc1cc(Nc2ccc(C)c(Cl)c2)n2nc(C(F)(F)F)nc2n1"
  MEASUREMENT_TYPE: "uridine"
  REPORTED_RESULT: -0.8568
- MOLECULE: "COc1ccc2c(=O)cc(C(Cl)(Cl)Cl)oc2c1"
  MEASUREMENT_TYPE: "uridine"
  REPORTED_RESULT: -1.942

---

Below, each of the molecules is paired with its reported S. cerevisiae jhy222 in YPD medium growth compared with DMSO control value.
- System: Saccharomyces cerevisiae strain JHY222
- TEST_PROTOCOL: S. cerevisiae JHY222 growth in three media
- Type: cell-based
- CONDITION_SUMMARY: 100µM
MEASUREMENT_TYPE: S. cerevisiae jhy222 in YPD medium growth compared with DMSO control

- CHEM_SMILES: "CCOC(=O)c1cnc2ccc(OC)cc2c1NCc1ccccc1"
  ASSAYED_TARGET: "Saccharomyces cerevisiae strain JHY222"
  REPORTED_RESULT: 0.0021
- CHEM_SMILES: "CCN1CCN(c2cc(C)c3cc(NC(=O)c4ccc(OC)c(OC)c4)ccc3n2)CC1"
  ASSAYED_TARGET: "Saccharomyces cerevisiae strain JHY222"
  REPORTED_RESULT: -0.0537
- CHEM_SMILES: "COc1ccc(C(=O)Nc2ccc3nc(N4CCCCC4)cc(C)c3c2)cc1OC"
  ASSAYED_TARGET: "Saccharomyces cerevisiae strain JHY222"
  REPORTED_RESULT: 0.0044
- CHEM_SMILES: "COc1cc2cc(C(=O)Nc3ccccc3)c(N)nc2cc1OC"
  ASSAYED_TARGET: "Saccharomyces cerevisiae strain JHY222"
  REPORTED_RESULT: -0.0536

---

- System: P. falciparum 3D7 trophozoites
- TEST_PROTOCOL: Metabolomic fingerprint profiling LC-MS
- Format: cell-based, Plasmodium falciparum
- CONDITION_SUMMARY: S2 Table Metabolomics; metabolite Acetyllysine

- COMPOUND: "Cc1cc(C=C2SC(=Nc3ccccc3)N(C3CCCC3)C2=O)c(C)n1-c1ccc(Cl)cc1"
  Acetyllysine: -0.1624
- COMPOUND: "Cc1cc(NC(=O)C2c3ccccc3C(=O)N(CC(C)C)C2c2cccs2)no1 (stereo not shown)"
  Acetyllysine: -4.876
- COMPOUND: "COc1ccccc1CNC(=O)CCn1c(=O)[nH]c2ccsc2c1=O"
  Acetyllysine: 0.07735
- COMPOUND: "CC1CCN(Cc2ccc(NC(=O)c3cc4ccc5cccnc5c4[nH]3)cc2)CC1"
  Acetyllysine: -2.641
- COMPOUND: "C[n+]1c2ccccc2nc2ccc(NCCO)cc21"
  Acetyllysine: -0.1505
- COMPOUND: "CCCN(CCC)CC(O)COc1ccccc1C(=O)Nc1ccccc1 (stereo not shown)"
  Acetyllysine: -1.84
- COMPOUND: "CN(C)c1ccc(C=Cc2nc(=O)c3ccccc3o2)cc1"
  Acetyllysine: -0.06229
- COMPOUND: "Fc1ccc2[nH]c3c(NCCCN4CCOCC4)ncnc3c2c1"
  Acetyllysine: -0.8876
- COMPOUND: "COc1ccc(C=C2SC(=N)N(c3ccccc3OC)C2=O)cc1"
  Acetyllysine: -0.06113
- COMPOUND: "CCOc1ccc(-c2nonc2NC(=O)c2cccc(C)c2)cc1OCC"
  Acetyllysine: -2.655
